Tested on: Raji
Test: Cytotoxicity against Homo sapiens (human) Raji cells after 96 hr by MTT assay
Format: functional, cell-based
This section presents compounds with their documented IC50 values.

Here is how some compounds turned out for IC50.
COc1ccccc1C1C2=C(CCCC2=O)Oc2c1c(=O)oc1ccccc21 (stereo unspecified)
> 100 µM
COc1ccc(C2C3=C(CCCC3=O)Oc3c2c(=O)oc2ccccc32)cc1 (stereo unspecified)
> 100 µM
O=C1CCCC2=C1C(c1ccc(Br)cc1)c1c(c3ccccc3oc1=O)O2 (stereo unspecified)
82.4 µM

## Task // query IC50 value for entry COc1cccc(C2C3=C(CCCC3=O)Oc3c2c(=O)oc2ccccc32)c1 (stereo unspecified)
## Result 49.2 µM

## Task // query IC50 value for entry O=C1CCCC2=C1C(c1cccc([N+](=O)[O-])c1)c1c(c3ccccc3oc1=O)O2 (stereo unspecified)
## Result > 100 µM

All figures here come from ChEMBL document CHEMBL3044684.
